- STUDY SYSTEM: T1, human amylin receptor on CHO-K1/Ga15/AMY3 cells (amylin receptor/CRE-luc cell line) (human) (UniProt P30988)
- T1 sequence (looked up) 1: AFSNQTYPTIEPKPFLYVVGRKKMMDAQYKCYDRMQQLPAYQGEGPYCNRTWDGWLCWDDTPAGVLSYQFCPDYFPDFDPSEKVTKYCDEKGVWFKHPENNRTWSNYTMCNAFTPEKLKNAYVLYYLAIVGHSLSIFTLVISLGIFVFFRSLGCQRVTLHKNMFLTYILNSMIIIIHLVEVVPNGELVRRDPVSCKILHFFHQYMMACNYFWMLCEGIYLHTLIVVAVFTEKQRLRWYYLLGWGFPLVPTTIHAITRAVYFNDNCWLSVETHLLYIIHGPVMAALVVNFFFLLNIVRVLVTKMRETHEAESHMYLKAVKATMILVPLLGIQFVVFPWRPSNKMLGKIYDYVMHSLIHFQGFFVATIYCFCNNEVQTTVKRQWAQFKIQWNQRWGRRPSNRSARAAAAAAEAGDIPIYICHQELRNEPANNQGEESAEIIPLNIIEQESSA
- T1 sequence (looked up) 2: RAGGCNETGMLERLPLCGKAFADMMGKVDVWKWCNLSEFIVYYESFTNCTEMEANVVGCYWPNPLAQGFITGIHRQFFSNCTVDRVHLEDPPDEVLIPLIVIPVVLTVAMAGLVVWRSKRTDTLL
- METHOD DESCRIPTION: cell-based or functional assay
Non-standard residues stand in square brackets, D forms with d. Primed or numbered codes have the meaning given here. *: point of attachment. C20 diacid = O=C(O)CCCCCCCCCCCCCCCCCCC(=O)*; Hyp = O=C(O)[C@@H]1C[C@@H](O)CN1; Inp′ = not defined here; Trx′ = not defined here; AEEA = NCCOCCOCC(=O)O
MEASURE: Relative activity (the EC50 ratio of Cagrilintide to the compound) (%)

Study these solved cases before continuing.
Report Relative activity (the EC50 ratio of Cagrilintide to the compound), nothing else, for this binder: {C20 diacid-Inp′}-ASQLSTAATQRLADFLRHSSNNLKPILPPTNVGSNT[Hyp]-NH2 [M30]
130

Using the record for {C20 diacid-Inp′-AEEA-AEEA}-ASQLSTAATQRLADFLRHSSNNLKPILPPTNVGSNT[Hyp]-NH2 [M36] , state its measured Relative activity (the EC50 ratio of Cagrilintide to the compound).
91

1 = {C20 diacid-Trx′-AEEA-AEEA}-ASQLSTAATQRLADFLRHSSNNLKPILPPTNVGSNT[Hyp]-NH2 (reading uncertain) [M35]
2 = {C20 diacid-Trx′}-ASQLSTAATQRLADFLRHSSNNLKPILPPTNVGSNT[Hyp]-NH2 (reading uncertain) [M29]
Between item 1 and item 2 , which reported Relative activity (the EC50 ratio of Cagrilintide to the compound) is smaller? Refer to your chosen item by its label in the answer.
1
